Tested on: Candida albicans
Test: Antifungal activity against Candida albicans B-311 incubated for 24 to 36 hrs by two fold dilution method
Format: functional
property_measured: MIC

Data request: Kindly indicate its recorded MIC. Item: NC[C@H]1O[C@H](O[C@H]2[C@H](O)[C@@H](O[C@H]3O[C@H](CO)[C@@H](O)[C@H](N)[C@H]3O)[C@H](N)C[C@@H]2N)[C@H](O)[C@@H](O)[C@@H]1O
Data returned: ≥ 256 µg/mL

Data request: Determine from records and report MIC for CCCCCCCCCCCCCCNC[C@H]1O[C@H](O[C@@H]2[C@@H](O)[C@H](O[C@H]3O[C@H](CN)[C@@H](O)[C@H](O)[C@H]3O)[C@@H](N)C[C@H]2N)[C@H](O)[C@@H](N)[C@@H]1O.Cl.Cl.Cl.Cl.Cl
Data returned: 8 µg/mL

Data request: Find the measured MIC of Cc1ccc(S(=O)(=O)OC[C@H]2O[C@H](O[C@@H]3[C@@H](O)[C@H](O[C@H]4O[C@H](CN)[C@@H](O)[C@H](O)[C@H]4O)[C@@H](N)C[C@H]3N)[C@H](O)[C@@H](N)[C@@H]2O)cc1.Cl.Cl.Cl.Cl and report it.
Data returned: > 256 µg/mL

Taken from ChEMBL document CHEMBL4359907.
